- System: L1210
- ASSAY COMMENT: Growth inhibition of cultured L1210 mouse leukemia cells was determined
- Type: functional
- RECORDED CONDITIONS: read-out: ID50 (the source's name)
IC50 less than 1 µM is Satisfied; IC50 greater than or equal to 1 µM is Not satisfied.

# COMPOUND, TESTED TARGET, CLASS LABEL
records = [
    ("CCCCCCCCOP(=O)(O)OC[C@H]1O[C@@H](n2ccc(N)nc2=O)[C@@H](O)[C@@H]1O", "L1210", "Not satisfied"),
    ("CCOP(=O)(O)OC[C@H]1O[C@@H](n2ccc(N)nc2=O)[C@@H](O)[C@@H]1O", "L1210", "Not satisfied"),
    ("CCCCCCOP(=O)(O)OC[C@H]1O[C@@H](n2ccc(N)nc2=O)[C@@H](O)[C@@H]1O", "L1210", "Not satisfied"),
    ("CCCCCCCCCCCCCCCCOP(=O)(O)OC[C@H]1O[C@@H](n2ccc(N)nc2=O)[C@@H](O)[C@@H]1O", "L1210", "Not satisfied"),
    ("Nc1ccn([C@@H]2O[C@H](COP(=O)(O)O)[C@@H](O)[C@H]2O)c(=O)n1", "L1210", "Satisfied"),
    ("CCCCOP(=O)(O)OC[C@H]1O[C@@H](n2ccc(N)nc2=O)[C@@H](O)[C@@H]1O", "L1210", "Not satisfied"),
    ("Nc1ccn([C@@H]2O[C@H](COP(=O)(O)OCC(O)CO)[C@@H](O)[C@@H]2O)c(=O)n1 (stereo partly drawn)", "L1210", "Satisfied"),
]
